- experiment: Hepatic metabolism: stability in mouse liver microsomes
- Assay type: in vitro ADME
- testSettings: percentage remaining relative to t0; mouse liver microsomes; SEM, n ≥ 2
quantityMeasured: Stability (2 h, with MLM) (%)
Answers are plain numbers, in %.

The following molecules have reported results that may help.
{"molecule": "CN(C)C(=O)c1ncn2c(=O)n(C)nnc12 [N,N-DiMe-TMZ, reference compound]", "Stability (2 h, with MLM) [%]": 81}
{"molecule": "CC#CCn1nnc2c(C(=O)N(C)C)ncn2c1=O", "Stability (2 h, with MLM) [%]": 77}
{"molecule": "Cn1nnc2c(C(N)=O)ncn2c1=O [TMZ, temozolomide, reference compound]", "Stability (2 h, with MLM) [%]": 95}

Data request: Let me know recorded Stability (2 h, with MLM) for CC#CCn1nnc2c(C(N)=O)ncn2c1=O , thanks.
Data returned: 89
